Recorded values, source ChEMBL document CHEMBL1125962.

assay: Inhibition of leukotriene synthesis was assessed from inhibitory activity against human PMN.; format: functional
Strictly below 7 nM in IC50: Satisfied. Otherwise: Not satisfied.

{"molecule": "O=C(O)CO/N=C(\\CCCc1ccccc1)c1ccc(OCc2ccc3ccccc3n2)cc1", "classification": "Not satisfied"}
{"molecule": "O=C(O)CSC(CCCc1ccccc1)c1ccc(OCc2ccc3ccccc3n2)cc1 (stereo unspecified)", "classification": "Satisfied"}
{"molecule": "OC(CCCc1ccccc1)c1ccc(OCc2ccc3ccccc3n2)cc1 (stereo unspecified)", "classification": "Not satisfied"}
{"molecule": "CCCCCC(O)c1cccc(OCc2ccc3ccccc3n2)c1 (stereo unspecified)", "classification": "Not satisfied"}
{"molecule": "CCCCCC(O)c1ccc(OCc2ccc3ccccc3n2)cc1 (stereo unspecified)", "classification": "Not satisfied"}
